Assay: Inhibition of HSV type-2 DNA polymerase after 30 mins by liquid scintillation counting analysis in presence of dATP, dCTP, dGTP and [3H]-TTP
Parameters: species or system Human alphaherpesvirus 2
Range-based classes on measured I50: LOW = under 4 µg/mL, MID = from 4 µg/mL up to 100 µg/mL, HIGH = 100 µg/mL and over

Would you please look over these solved cases?
# compound, label-value
data = [
    ("O=C(O)CP(=O)(O)c1ccccc1", "HIGH"),
    ("O=C(CP(=O)(O)O)OC1CCCCC1", "MID"),
    ("CP(=O)(O)CC(=O)O", "HIGH"),
    ("CCCOC(=O)CP(=O)(O)O", "LOW"),
    ("COc1ccc(P(=O)(O)CC(=O)O)cc1", "HIGH"),
]

Problem: Bin? O=C(CP(=O)(O)O)OCc1ccccc1
Result: MID

Problem: Band of COP(=O)(O)CC(=O)O ?
Result: MID

Problem: Please indicate the class for O=C(O)CP(=O)([O-])[O-].[Na+].[Na+] [DISODIUM CARBOXYMETHYLPHOSPHONATE] based on its I50.
Result: LOW

Problem: Band of CCCCCCCCOC(=O)CP(=O)(O)O ?
Result: LOW

Problem: State the band of CCCOP(=O)(O)CC(=O)O
Result: HIGH
